biological target: Activated CDC42 kinase 1 (Homo sapiens); settings: at 0.1 µM;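 also: values are mean inhibition of TNK2, from the GSK PKIS screening dataset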
Reported inhibition values are given for each entry in this list.

recordSmiles | inhibition, %
CCCN1CCC(c2ccc(Nc3nc(Nc4cc(F)ccc4C(N)=O)c4cc[nH]c4n3)c(OC)c2)CC1 | 5.57
Cc1cccc2c1NC(=O)/C2=N\Nc1ccc(S(N)(=O)=O)cc1 | 1.06
COC(=O)Nc1nc2ccc(S(=O)(=O)c3ccc(NC(=O)Nc4cc(C(F)(F)F)ccc4F)cc3)cc2[nH]1 | 0.69
Nc1ncc(-c2cccc(S(N)(=O)=O)c2)c2scc(-c3ccc(F)c(Cl)c3)c12 | 5.03
Cc1ccc(O)cc1Nc1ccnc2cc(-c3ccccn3)ccc12 | 2.64
COc1ccc(CNC(=O)c2ccc(-c3cc(-c4nnc(C)o4)ccc3C)cc2)cc1 | 3.84
CCn1c(-c2nonc2N)nc2c(C#CC(C)(C)O)nc(OC[C@H](N)c3ccccc3)cc21 | 0.7
CCn1c(-c2nonc2N)nc2ccccc21 | 1.12
Nc1nc(-c2cccc(Cl)c2)c(-c2ccc3ncccc3n2)s1 | 3.52
NC(=O)c1sc(-n2cnc3ccc(C(F)(F)F)cc32)cc1OCc1ccccc1Br | 0.36
